Data credit: the supplement of paper PMC10515830

# System: Danio rerio larvae (5 dpf)
# assay-procedure: difference in combined optomotor response to red, green and blue moving lines vs DMSO (percentage points); higher = stronger optomotor response than DMSO
# test-conditions: 10 µM; exposure time 6 h
Where a name gives a salt, the structure may show the parent alone.
Everything with difference lower than 8 is NO; everything else, including exactly 8, is YES.

For orientation, consider the following solved cases.
Cc1cc(C)cc(OCC2CNC(=O)O2)c1 (stereo not drawn)	YES
CC[C@H]1OC(=O)[C@H](C)[C@@H](O[C@H]2C[C@@](C)(OC)[C@@H](O)[C@H](C)O2)[C@H](C)[C@@H](O[C@@H]2O[C@H](C)C[C@H](N(C)C)[C@H]2O)[C@](C)(O)C[C@@H](C)C(=O)[C@H](C)[C@@H](O)[C@]1(C)O	YES
NC(=O)c1cn(Cc2c(F)cccc2F)nn1 [Rufinamide]	NO
NCCS [Cysteamine (hydrochloride)]	YES
O=C(O)CCCc1ccccc1 [Sodium 4-Phenylbutyrate]	NO

Inquiry: Please check the record CC(C)(C(=O)c1cccnc1)c1cccnc1 and state if its difference is at or above 8.
Reply text: NO

Inquiry: Then what about the molecule N#C[C@@H]1C[C@@H]2C[C@@H]2N1C(=O)[C@@H](N)C12CC3CC(CC(O)(C3)C1)C2 [Saxagliptin (hydrochloride)] ?
Reply text: NO

Inquiry: Then what about the molecule Cc1cn[nH]c1 [Fomepizole] ?
Reply text: NO

* * *

# Test system: Danio rerio larvae (5 dpf)
# assay-procedure: difference in excitability vs DMSO (percentage points); higher = more excitable than DMSO
# test-conditions: 10 µM; exposure time 6 h
measured-attribute: difference in excitability
Format: numeric value only, no unit, no commentary.

Take a look at these entries with their results.
COc1ccnc(C[S+]([O-])c2nc3cc(OC(F)F)ccc3[nH]2)c1OC (configuration not stated) [Pantoprazole]	1.4
CN(Cc1cnc2nc(N)nc(N)c2n1)c1ccc(C(=O)N[C@@H](CCC(=O)O)C(=O)O)cc1 [Methotrexate (hydrate)]	9.03

Inquiry: # difference in excitability lookup, item CON(C)Cc1ccc(O)c2c1C[C@H]1C[C@H]3[C@H](N(C)C)C(=O)C(C(N)=O)=C(O)[C@@]3(O)C(=O)C1=C2O
Reply text: -1.28

* * *

# System: Danio rerio larvae (5 dpf)
# assay-procedure: difference in habituation to acoustic stimuli vs DMSO (percentage points); higher = more habituation than DMSO
# test-conditions: 10 µM; exposure time 6 h
Where a name gives a salt, the structure may show the parent alone.
Note: every record was labeled by where its difference in habituation to acoustic stimuli sits among 1 = under -2, 2 = from -2 up to 2, 3 = 2 and over

For orientation, consider the following solved cases.
CC(=O)Nc1cccc(-n2c(=O)n(C3CC3)c(=O)c3c(Nc4ccc(I)cc4F)n(C)c(=O)c(C)c32)c1	3
COC[C@H]1C[C@@H](c2nc(-c3ccc4c(c3)COc3cc5c(ccc6nc([C@@H]7CC[C@H](C)N7C(=O)[C@@H](NC(=O)OC)C(C)C)[nH]c65)cc3-4)c[nH]2)N(C(=O)[C@H](NC(=O)OC)c2ccccc2)C1	2
CN(C)CCCN1c2ccccc2Sc2ccc(Cl)cc21 [Chlorpromazine (hydrochloride)]	1
CCCN(CCc1cccs1)[C@H]1CCc2c(O)cccc2C1	1
CCC(=O)NC[C@@H]1C[C@H]1c1cccc2c1CCO2	1

Inquiry: Hello team, could you let me know which band the following compound falls into: Nc1nc(NC2CC2)c2ncn([C@H]3C=C[C@@H](CO)C3)c2n1 [Abacavir (sulfate)]
Reply text: 2

Inquiry: Then what about the compound C#CCN[C@@H]1CCc2ccccc21 ?
Reply text: 3

Inquiry: Then what about the compound Nc1nc2c(c(=O)[nH]1)N(C=O)C(CNc1ccc(C(=O)NC(CCC(=O)O)C(=O)O)cc1)CN2 (racemic) [DL-Folinic Acid (calcium salt)] ?
Reply text: 2

Inquiry: Then what about the compound CNC[C@H](O)c1ccc(O)c(O)c1 (racemic) [(±)-Epinephrine (hydrochloride)] ?
Reply text: 1

Inquiry: Then what about the compound C[N+](C)(C)CCOC(N)=O [Carbamoylcholine (chloride)] ?
Reply text: 2

Inquiry: Then what about the compound NC(=O)N[C@@H](CCC(=O)O)C(=O)O ?
Reply text: 3

Inquiry: Then what about the compound CCc1ccc(CCOc2ccc(CC3SC(=O)NC3=O)cc2)nc1 (centres undefined) [Pioglitazone (hydrochloride)] ?
Reply text: 3

Inquiry: Then what about the compound Nc1ccn(C[C@@H](CO)OCP(=O)(O)O)c(=O)n1 ?
Reply text: 1

Inquiry: Then what about the compound NCCC(O)(P(=O)(O)O)P(=O)(O)O [Pamidronate (sodium salt)] ?
Reply text: 2

Inquiry: Then what about the compound CN1C(=O)OC(C)(C)C1=O ?
Reply text: 3

Inquiry: Then what about the compound C[C@]12C=CC(=O)N[C@@H]1CC[C@@H]1[C@@H]2CC[C@]2(C)[C@@H](C(=O)Nc3cc(C(F)(F)F)ccc3C(F)(F)F)CC[C@@H]12 [Dutasteride] ?
Reply text: 1

Inquiry: Then what about the compound CC/C=C\C/C=C\C/C=C\C/C=C\C/C=C\CCCC(=O)OCC ?
Reply text: 3

Inquiry: Then what about the compound CC(=O)OCC(=O)[C@@]1(O)CC[C@H]2[C@@H]3CCC4=CC(=O)CC[C@]4(C)[C@H]3C(=O)C[C@@]21C [Cortisone Acetate] ?
Reply text: 3

Inquiry: Then what about the compound Cc1cc2nc3c(=O)[nH]c(=O)nc-3n(C[C@H](O)[C@H](O)[C@H](O)COP(=O)(O)O)c2cc1C [Riboflavin 5'-monophosphate (sodium salt hydrate)] ?
Reply text: 3

Inquiry: Then what about the compound Cc1cccc(Nc2ccncc2S(=O)(=O)NC(=O)NC(C)C)c1 [Torasemide] ?
Reply text: 1
